- targetEntity: T1, GLP-1R in the INS1e assay (UniProt P32301 22-463, limits assumed)
- T1 sequence (looked up): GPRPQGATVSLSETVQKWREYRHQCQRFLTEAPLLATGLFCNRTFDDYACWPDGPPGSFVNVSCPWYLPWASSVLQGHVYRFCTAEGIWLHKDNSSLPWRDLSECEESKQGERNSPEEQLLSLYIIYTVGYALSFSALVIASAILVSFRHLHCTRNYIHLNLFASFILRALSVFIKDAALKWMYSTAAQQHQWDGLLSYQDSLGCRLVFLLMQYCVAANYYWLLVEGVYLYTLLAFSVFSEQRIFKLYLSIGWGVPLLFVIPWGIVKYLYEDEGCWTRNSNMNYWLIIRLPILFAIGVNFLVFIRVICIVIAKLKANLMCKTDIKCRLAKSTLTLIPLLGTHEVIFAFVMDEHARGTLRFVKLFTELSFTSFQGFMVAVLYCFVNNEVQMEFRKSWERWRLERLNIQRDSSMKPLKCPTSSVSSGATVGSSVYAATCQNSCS
- experimentSummary: cell-based or functional assay
Starred links: 1 amine or outer side, 2 acyl side, 3 side chain; linkers in the order of their positions; H or OH if unused. Non-standard residues stand in square brackets, D forms with d. Groups on a side chain read outwards from the residue. Primed or numbered codes have the meaning given here. No end group written: not given here. *: point of attachment. γGlu = O=C(O)[C@H](CCC(=O)[*:2])N[*:1]; αMeF = C[C@](N)(Cc1ccccc1)C(=O)O; αMeK = C[C@](N)(CCCCN)C(=O)O; Lauroyl = CCCCCCCCCCCC(=O)*; αMeS = C[C@](N)(CO)C(=O)O; PEG2′ = not defined here; Aib = CC(C)(N)C(=O)O
observationType: cAMP INS1e assay EC50, n1 (nM)

binder	endpointValue
H[Aib]EGS[αMeF]TSDV[αMeS]SYK([PEG2′-PEG2′-γGlu-Lauroyl])EGEAA[αMeK]K([PEG2′-PEG2′-γGlu-Lauroyl])FIAK([PEG2′-PEG2′-γGlu-Lauroyl])VVEGG-NH2 [SEQ ID NO: 470]	3.84
H[Aib]EGS[αMeF]TSDV[αMeS]SYK([PEG2′-PEG2′-γGlu-Lauroyl])EGEAA[αMeK]K([PEG2′-PEG2′-γGlu-Lauroyl])FIK([PEG2′-PEG2′-γGlu-Lauroyl])FVVEGG-NH2 [SEQ ID NO: 454]	4.1

Source of measurements: patent US20200079833A1
